Source listed as BindingDB's records for doi:10.1021/jm051146h.

Listing of recorded pEC50 by entry.
# EXPERIMENTAL SYSTEM: UniProt P08238
# TEST DETAILS: Her-2 Degradation Assay
# TEST CONDITIONS: pH 7.2; 37 °C
Note on units: pEC50 is unitless, being -log10 of a concentration expressed in mol/L.

In [3]: df
Out[3]:
                           molecular_string  recorded_endpoint  data_value
0    CCn1c(Sc2nc3cccc(Cl)c3s2)nc2c(N)ncnc21              pEC50        6.70
1  CCCCn1c(Sc2nc3c(Cl)cccc3s2)nc2c(N)ncnc21              pEC50        4.82
2      CCCCn1c(Sc2nc3ccccc3s2)nc2c(N)ncnc21              pEC50        5.30
3   Nc1ncnc2c1nc(Sc1nc3cccc(Cl)c3s1)n2CCCCO              pEC50        6.82
4  CCCCn1c(Sc2nc3cccc(OCC)c3s2)nc2c(N)ncnc21              pEC50        4.00
5  CCCCn1c(Sc2nc3ccc(Cl)cc3s2)nc2c(N)ncnc21              pEC50        5.15
6  CC(=O)OCCn1c(Sc2nc3cccc(Cl)c3s2)nc2c(N)ncnc21              pEC50        6.82
7  CCCCn1c(Sc2nc3cccc(Cl)c3s2)nc2c(N)ncnc21              pEC50        6.74
8  CC(=O)OCCCn1c(Sc2nc3cccc(Cl)c3s2)nc2c(N)ncnc21              pEC50        7.05
9  N#CCCCCn1c(Sc2nc3cccc(Cl)c3s2)nc2c(N)ncnc21              pEC50        6.96

# context switch: different molecule, same pEC50
What does the data say about its pEC50? Entry: CCCCn1c(Sc2nc3cccc(F)c3s2)nc2c(N)ncnc21 6.70

----------
# EXPERIMENTAL SYSTEM: Heat shock protein HSP 90-beta (Homo sapiens)
# TEST DETAILS: Her-2 Degradation Assay
Listing of recorded EC50 by entry.
Report the figure in nM without appending any unit label.

Completed entries (count: 4):
>>> print(df.to_string())
                           molecular_string  recorded_endpoint  data_value
0  CC(C)(C)CNCCn1c(Sc2nc3cccc(Cl)c3s2)nc2c(N)ncnc21               EC50          35
1  CC(C)(C)NCCCn1c(Sc2nc3cccc(Cl)c3s2)nc2c(N)ncnc21               EC50         150
2  CC(C)(C)NCCn1c(Sc2nc3cccc(Cl)c3s2)nc2c(N)ncnc21               EC50         140
3  Nc1ncnc2c1nc(Sc1nc3cccc(Cl)c3s1)n2CCNC1CC1               EC50         110

# context switch: different compound, same EC50
What does the data say about its EC50? Entry: CCCCn1c(Sc2nc3cncc(Cl)c3s2)nc2c(N)ncnc21 280

----------
Listing of recorded EC50 by entry.
# EXPERIMENTAL SYSTEM: Heat shock protein HSP 90-beta (Homo sapiens, UniProt P08238)
# Sequence (P08238 whole entry): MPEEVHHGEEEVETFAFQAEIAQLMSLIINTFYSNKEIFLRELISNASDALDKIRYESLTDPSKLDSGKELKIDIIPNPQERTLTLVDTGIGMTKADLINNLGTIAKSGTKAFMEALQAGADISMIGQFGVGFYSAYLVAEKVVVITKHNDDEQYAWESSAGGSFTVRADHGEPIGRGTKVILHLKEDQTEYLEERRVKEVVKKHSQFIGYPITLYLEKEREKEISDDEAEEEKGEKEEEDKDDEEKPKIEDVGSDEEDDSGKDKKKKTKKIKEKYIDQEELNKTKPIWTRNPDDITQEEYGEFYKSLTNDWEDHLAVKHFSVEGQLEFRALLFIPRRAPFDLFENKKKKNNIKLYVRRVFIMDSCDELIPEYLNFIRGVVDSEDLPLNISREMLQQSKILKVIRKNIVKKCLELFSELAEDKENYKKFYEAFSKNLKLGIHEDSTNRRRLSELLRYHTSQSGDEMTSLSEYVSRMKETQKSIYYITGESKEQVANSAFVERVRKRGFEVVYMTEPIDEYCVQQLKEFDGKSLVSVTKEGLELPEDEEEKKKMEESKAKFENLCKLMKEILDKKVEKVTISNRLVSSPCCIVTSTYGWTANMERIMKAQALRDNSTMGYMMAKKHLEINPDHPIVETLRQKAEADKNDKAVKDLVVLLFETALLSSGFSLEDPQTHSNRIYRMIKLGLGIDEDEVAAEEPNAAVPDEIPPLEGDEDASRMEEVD
# TEST DETAILS: Her-2 Degradation Assay
# Description: A fluorescence histogram was generated, and the mean fluorescence intensity (MFI) of each sample was determined using Cellquest software.
Report the figure in nM without appending any unit label.

In [3]: df
Out[3]:
                           molecular_string  unit_string  data_value
0  CC(=O)OCCCn1c(Sc2nc3cncc(Cl)c3s2)nc2c(N)ncnc21           nM         170
1  CCCCn1c(Sc2nc3cncc(Br)c3s2)nc2c(N)ncnc21           nM         400

# context switch: different compound, same EC50
What does the data say about its EC50? Entry: CC(C)NCCCn1c(Sc2nc3cccc(Cl)c3s2)nc2c(N)ncnc21 170
